System: OVCAR-3 ovarian
measurement notes: NCI-60 one-dose screen, 48 h (100 = growth as untreated, 0 = no growth, -100 = all killed)
measurement parameters: 10 µM unless noted
Compounds without any hit were thinned out: in the full panel of roughly 83,000, 20% have a hit. Activity calls are given as the source filed them. The calls were made as follows: active = growth percent below 10; inactive = the rest.
Collected growth values appear next to each entry.
value type: growth

compound: Nc1nc2ncc(CNc3ccc(C(=O)NC(CCC(=O)NC(CCC(=O)NC(CCC(=O)NC(CCC(=O)NC(CCC(=O)O)C(=O)O)C(=O)O)C(=O)O)C(=O)O)C(=O)O)cc3)nc2c(=O)[nH]1 (stereo unspecified)
observed result: 118% (inactive)

compound: COc1cc(NCc2ccc3nc(N)nc(N)c3c2C)cc(OC)c1OC (tested in a mixture with another compound)
observed result: 55.3% (inactive)

compound: c1ccc(-c2cc3cc4ccccc4cn3c2)cc1
observed result: 88.9% (inactive)

compound: O=C(Nc1ccc(Cl)c(Cl)c1)OCc1ccco1
observed result: 47% (inactive)

compound: CCCCCCCCCCCCNCCCc1ccccc1
observed result: 83% (inactive)

compound: O=C1c2ccccc2Cc2cccc(Cl)c21
observed result: 108% (inactive)

compound: OC(c1cc(-c2ccc(Cl)cc2)nc2c(Cl)cccc12)C1CCCCN1 (stereo unspecified)
observed result: -95.1% (active)

compound: Cc1c(O)ccc(SC#N)c1C
observed result: 90.8% (inactive)

compound: CCCc1cc(=O)oc2c3c(c4c(c12)OC(C)(C)CC4)OC(C)[C@H](C)[C@@H]3O (stereo partly specified)
observed result: 112% (inactive)

compound: CC1(C)CCCC2=C1C(=O)N(SC(Cl)(Cl)Cl)C2=O
observed result: 104% (inactive)

compound: CCCCCCCCCCCC[n+]1ccccc1 (tested in a mixture with another compound)
observed result: -63.1% (active)

compound: O=C1C=CC(=O)N1C1CCCCCCCCCCC1
observed result: 53% (inactive)

compound: Cc1ccc2cccc(OC(=O)Nc3cccc(C(F)(F)F)c3)c2n1
observed result: 32.3% (inactive)

compound: CCOC(=O)NC(/C=C/c1ccccc1)NC(=O)OCC
observed result: 107% (inactive)

compound: CCCCCCCCCCCC[N+]1(CCCCCCCCCCCC)CCCC(C)C1 (stereo unspecified)
observed result: -88.7% (active)

compound: O=[N+]([O-])/C(=C/c1ccccc1)c1ccccc1
observed result: 109% (inactive)

compound: N=C1C=C(N)C(=O)c2ccccc21
observed result: -87.6% (active)

compound: COc1cccc2c1C(=O)c1c(O)c3c(c(O)c1C2=O)C[C@@](O)(C(=O)CO)C[C@@H]3OC1CC(OC(C)=O)C(OC(C)=O)C(C)O1 (stereo partly specified)
observed result: -41.2% (active)

compound: COC(=O)C(=[N+]=[N-])C(=O)c1ccc([N+](=O)[O-])o1
observed result: 88.3% (inactive)

compound: O=C(NNc1ccccc1)OCc1ccccc1
observed result: 91.4% (inactive)

compound: NC(=S)N/N=C/c1ncccc1O
observed result: 27.7% (inactive)

compound: CCOc1ccc(Nc2nc3c(s2)C(=O)c2ccccc2C3=O)cc1
observed result: 53.9% (inactive)

compound: CCN1/C(=C/C(C)=C/c2sc3ccc4ccccc4c3[n+]2CC)Sc2ccc3ccccc3c21
observed result: -94.5% (active)

compound: CCOc1cc(F)c([N+](=O)[O-])cc1[N+](=O)[O-]
observed result: 46.7% (inactive)

compound: NC(=S)N/N=C\c1nccc2c(C(F)(F)F)cccc12
observed result: 15.3% (inactive)

compound: CC(C)N=C(N)/N=C(\N)Nc1ccc2ccc3ccccc3c2c1
observed result: -83% (active)

compound: O=C(Nc1ccc(Cl)c(Cl)c1)Nc1ccccc1O
observed result: 79.6% (inactive)

compound: O=C(c1ccccc1)c1cc2ccccc2oc1=O
observed result: 107% (inactive)

compound: Nc1cccc2cccc([N+](=O)[O-])c12
observed result: 124% (inactive)

compound: Nc1ccc(Oc2ccccc2)c(Cl)c1
observed result: 113% (inactive)

compound: Oc1ccc2ccccc2c1N=Nc1nccs1
observed result: 1.47% (active)

compound: CCCCC(C=O)(C=C=C(C)C)CC (stereo unspecified)
observed result: 107% (inactive)

compound: C/C=C/c1cc2c(c(=O)o1)C(=O)[C@@H](O)[C@H](C)O2
observed result: 47.5% (inactive)

compound: Oc1cc(Cl)ccc1Cc1ccc(Cl)cc1O
observed result: 40.2% (inactive)

compound: CCCCCCCCc1cc(Cl)c(O)c(Cl)c1
observed result: 101% (inactive)

compound: CN(C)c1ccc(/C=C/c2cc[n+](C)c(/C=C/c3ccc(N(C)C)cc3)c2)cc1
observed result: 20.5% (inactive)

compound: COC(=O)c1cc([N+](=O)[O-])cc([N+](=O)[O-])c1Cl
observed result: -44.7% (active)

compound: CN(C)c1ccc(/C=C/c2ccnc3ccccc23)cc1
observed result: 45.1% (inactive)

compound: O=C(/C(Cl)=N/O)c1ccc(-c2ccccc2)cc1
observed result: 72.3% (inactive)

compound: Cc1ccccc1NC(=O)Cc1csc2[n+]1C(=O)/C(=C/c1ccc([N+](=O)[O-])cc1)S2
observed result: 97.8% (inactive)

compound: O=C(Nc1cccc(C(F)(F)F)c1)Oc1ccc(Cl)c2cccnc12
observed result: -56.3% (active)

compound: O=C(Cc1nc2cc(Cl)c(Cl)cc2nc1CC(=O)c1cccnc1)c1cccnc1
observed result: 78.5% (inactive)

compound: Cc1ccccc1N=C(N)Nc1ccccc1C (tested in a mixture with another compound)
observed result: 78.8% (inactive)

compound: CCOC(=O)C1=NN(c2ccccc2)C(=O)/C1=C\N1C(=O)/C(=C/c2cccc(O)c2)SC1=S
observed result: 106% (inactive)

compound: C1=C(c2ccccc2)c2ccccc2C1
observed result: 106% (inactive)

compound: O=C1CSC(=S)N1Cc1cccnc1
observed result: 99.2% (inactive)

----------
System: CAKI-1 renal
measurement notes: NCI-60 one-dose screen, 48 h
measurement parameters: 10 µM unless noted
Compounds without any hit were thinned out: in the full panel of roughly 83,000, 20% have a hit. Calls of active or inactive are those of the source. Rule for the calls: active = growth percent below 10; inactive = the rest.
Labels: T (active), F (inactive)

compound: CC(C)(C)c1ccc(O)c(Br)c1
class label: F
--
compound: Oc1c(Cl)cc(Cl)cc1C=NCC1CCC(CN=Cc2cc(Cl)cc(Cl)c2O)CC1 (stereo unspecified)
class label: F
--
compound: CCCC[n+]1c(/C=C\c2c(OC)cc(OC)cc2OC)ccc2ccccc21
class label: T
--
compound: O=C1C=CC(=O)N1c1cc(Cl)c(Cl)cc1Cl
class label: F
--
compound: CC12CCC(O)CC1=CCC1C2CCC2(C)C3=NN=CC3CC12 (stereo unspecified)
class label: F
--
compound: O=C(Cc1nc2cc(Cl)c(Cl)cc2nc1CC(=O)c1ccccc1)c1ccccc1
class label: F

----------
Tested on: RXF 393 renal
measurement notes: NCI-60 one-dose screen, 48 h (100 = growth as untreated, 0 = no growth, -100 = all killed)
measurement parameters: 10 µM unless noted
This is part of a sample that, as a whole, favours compounds with a hit. Of some 83,000 tested, about 20% had one in any assay.

molecule: COC(=O)C(=[N+]=[N-])C(=O)c1ccc([N+](=O)[O-])o1
growth, %: 81.3

molecule: O=[N+]([O-])c1ccc([I+]c2ccccc2)cc1
growth, %: 57.8

molecule: CN(C)c1ccc(/C=C/c2sc3ccc4ccccc4c3[n+]2C)cc1
growth, %: -95.1

molecule: COc1cc(NCc2ccc3nc(N)nc(N)c3c2C)cc(OC)c1OC (tested in a mixture with another compound)
growth, %: 30.1

molecule: OC(CSc1ccccc1)CN1CCN(c2ccc(Cl)cc2)CC1 (stereo unspecified)
growth, %: 95.7

molecule: COc1ccc2c(c1)c(CC(=O)O)c(C)n2C(=O)c1ccc(Cl)cc1
growth, %: 109

molecule: CCCCCCCCc1cc(Cl)c(O)c(Cl)c1
growth, %: 113

molecule: Cc1ccc(N2C(=O)C=CC2=O)cc1
growth, %: 99.7

molecule: CC(C)c1ccc(C(=O)OC2CCCC2)cc1
growth, %: 118

molecule: Cc1cc(=O)oc2cc(O)cc(O)c12
growth, %: 114

molecule: Cc1ccccc1N=C(N)Nc1ccccc1C (tested in a mixture with another compound)
growth, %: 94.7

----------
Tested on: COLO 205 colon
measurement notes: NCI-60 one-dose screen, 48 h
measurement parameters: 10 µM unless noted
This is part of a sample that, as a whole, favours compounds with a hit. Of some 83,000 tested, about 20% had one in any assay. The source made the active and inactive calls. The calls were made as follows: active = growth percent below 10; inactive = the rest.
Possible outcomes: active, inactive

compound: CCOC(=O)c1[nH]c(C#N)c(C(=O)OCC)c1C
class label: inactive
//
compound: Nc1ccc(-c2ccc(N)c(S(=O)(=O)O)c2)cc1S(=O)(=O)O
class label: inactive
//
compound: CCOc1ccc(C(CN2CCOCC2)C(C)=O)cc1OC (stereo not drawn)
class label: inactive
//
compound: Cc1nn(CCO)c(C)c1N=[N+]([O-])c1c(C)nn(CCO)c1C
class label: active
//
compound: CCCCC(C=O)(C=C=C(C)C)CC (stereo not drawn)
class label: inactive
//
compound: O=C(/C=C/c1ccccc1)c1ccccc1O
class label: inactive
//
compound: CN(C)c1ccc(/C=C/c2ccnc3ccccc23)cc1
class label: inactive
//
compound: CC(C)Nc1ccc(Nc2ccc(NC(C)C)cc2)cc1
class label: inactive
//
compound: NC(=S)N/N=C\c1nccc2c(N)cccc12
class label: inactive
//
compound: O=[N+]([O-])c1cc(-c2ccccc2)c(O)c([N+](=O)[O-])c1
class label: inactive
//
compound: CCOc1cc(F)c([N+](=O)[O-])cc1[N+](=O)[O-]
class label: active
//
compound: Nc1nc(N)c2cc(Sc3cccc(C(F)(F)F)c3)ccc2n1
class label: active
//
compound: N#CC(I)CS(=O)(=O)c1ccccc1 (stereo not drawn)
class label: active
//
compound: O/N=C1\c2ccccc2-c2ccc(F)cc21
class label: inactive
//
compound: O=C(Nc1cccc(C(F)(F)F)c1)Oc1ccc(Cl)c2cccnc12
class label: inactive
//
compound: CC(=O)c1ccc2c(c1)CCc1ccccc1-2
class label: inactive
//
compound: CCN1CCCC(Nc2cc(C)nc(/N=C(/N)Nc3ccc(Cl)c(Cl)c3)n2)C1 (stereo not drawn)
class label: active
//
compound: O=C1c2ccccc2C(=O)c2c(O)c(Cl)cc(O)c21
class label: inactive
//
compound: CCC(=O)c1cc([N+](=O)[O-])c(Br)s1
class label: inactive
//
compound: S=C=Nc1ccc(N2CCOCC2)cc1
class label: inactive
//
compound: O=C(CBr)c1ccc(OC(=O)c2ccccc2)cc1
class label: inactive
//
compound: CCCCCCCCCCCCCCCC[N+]1(C)CCCC1c1cccnc1 (stereo not drawn)
class label: active
//
compound: NCCCN(CCCN)CCCNCc1c2ccccc2c(CNCCCN(CCCN)CCCN)c2ccccc12
class label: inactive
//
compound: CCCCCCCCCCCC1=NCCCN1CCCC
class label: inactive
//
compound: Oc1c(Cl)cc(Cl)cc1C=NCC1CCC(CN=Cc2cc(Cl)cc(Cl)c2O)CC1 (stereo not drawn)
class label: inactive
//
compound: NC1=C(Br)C(=O)c2ncccc2C1=O
class label: inactive
//
compound: CCCOC(=O)c1nc(N(CC2CCCCC2)C(=O)NC)sc1/N=C/c1ccccc1
class label: inactive
//
compound: c1csc(-c2[nH]nc3c2CCc2ccccc2-3)c1
class label: active
//
compound: Cc1cccc2c(N)c3ccccc3nc12
class label: active
//
compound: Fc1ccc(NCCS)cc1
class label: inactive
//
compound: O=C(OC12CC3CC(CC(C3)C1)C2)c1ccc(NCc2cc(O)ccc2O)cc1
class label: active
//
compound: COC(=O)Nc1nc2ccc(C3(c4ccc(F)cc4)OCCO3)cc2[nH]1
class label: active
//
compound: COc1cc(OC)c(/C=C/c2c3ccccc3cc[n+]2C)c(OC)c1
class label: active
//
compound: Cc1cc(C(=O)c2ccc(Cl)cc2)ccc1O
class label: inactive
//
compound: COc1cc2c(c(OC)c1OC)-c1ccc(NCc3ccccc3)c(=O)cc1[C@@H](NC(C)=O)CC2
class label: active
//
compound: COc1ccc2c(c1OC)OCC(CN(C)C)C2=O (stereo not drawn)
class label: active
//
compound: OC(c1cc(-c2ccc(Cl)cc2)nc2c(Cl)cccc12)C1CCCCN1 (stereo not drawn)
class label: active
//
compound: CCSc1nc2ccccc2o1
class label: inactive
//
compound: O=C1C=Cc2ccccc2/C1=C/c1nc(-c2ccccc2)oc1O
class label: inactive
//
compound: COC(=O)c1nc(=S)[nH]c(C(=O)OC)c1C(=O)c1ccc(Cl)c(Cl)c1
class label: inactive
//
compound: O=[N+]([O-])c1ccc(C(Br)c2ccc([N+](=O)[O-])cc2)cc1
class label: inactive
//
compound: COc1cc(/C=C2\SC(=S)N(/C=C/c3nc4ccccc4[nH]c3=O)C2=O)cc(OC)c1OC
class label: inactive
//
compound: O=C1/C(=C\c2ccc([N+](=O)[O-])cc2)CS(=O)(=O)C/C1=C/c1ccc([N+](=O)[O-])cc1
class label: active
//
compound: CN(C)CC(C)(CN(C)C)C(=O)/C=C/c1c(Cl)cccc1Cl
class label: inactive
//
compound: Cc1cc2cccnc2c2ncccc12
class label: active
//
compound: O=[N+]([O-])CC(O)c1ccccc1 (stereo not drawn)
class label: inactive
//
compound: Cc1oc2c(C)c3oc(=O)cc(C)c3cc2c1CCl
class label: inactive
//
compound: COc1cc([C@@H]2c3cc4c(cc3[C@H](OC3OC5COC(c6ccccc6)OC5C(O)C3O)[C@H]3COC(=O)[C@H]23)OCO4)cc(OC)c1OC (stereo partly drawn)
class label: active
